# EXPERIMENTAL_TARGET: Calcium/calmodulin-dependent protein kinase type IV (Homo sapiens, UniProt Q16566)
# Sequence (Q16566 whole entry): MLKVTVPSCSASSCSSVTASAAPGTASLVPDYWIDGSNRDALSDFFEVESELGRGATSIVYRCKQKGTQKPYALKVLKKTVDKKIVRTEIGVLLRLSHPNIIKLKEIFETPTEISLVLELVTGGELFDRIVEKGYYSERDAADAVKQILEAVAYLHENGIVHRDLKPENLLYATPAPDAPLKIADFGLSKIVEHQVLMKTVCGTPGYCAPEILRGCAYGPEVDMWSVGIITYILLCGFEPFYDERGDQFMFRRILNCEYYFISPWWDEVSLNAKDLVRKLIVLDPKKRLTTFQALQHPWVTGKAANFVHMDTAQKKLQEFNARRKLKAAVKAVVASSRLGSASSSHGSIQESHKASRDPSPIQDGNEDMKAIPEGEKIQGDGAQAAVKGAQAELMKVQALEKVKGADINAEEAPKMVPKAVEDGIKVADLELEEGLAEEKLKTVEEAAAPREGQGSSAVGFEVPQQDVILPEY
# PROTOCOL_DESCRIPTION: Inhibition of full-length recombinant human GST-tagged CAMK4 expressed in Escherichia coli by Z'-LYTE assay
Below, each entry is listed alongside its reported IC50.
Please give a number only; it is taken to be in µM.

>  <SMILES_DATA>
Cc1sc(C(=O)N[C@@H]2[C@H](N)CCCC2(F)F)cc1-c1cnn2cc(Cl)cnc12

>  <EXPERIMENTAL_TARGET>
Calcium/calmodulin-dependent protein kinase type IV (Homo sapiens, UniProt Q16566)

>  <IC50, µM>
29

$$$$

Identify measured IC50 corresponding to O=C(NCC(F)(F)F)c1cc(-c2cnn3cc(-c4ccc(OCCN5CCCCC5)cc4)cnc23)cs1
55

meta.source: ChEMBL document CHEMBL4477252
